- assay.explanation: Plasma pharmacokinetics of high-dose intermittent sunitinib (LC-MS-MS, NONMEM)
- Format: in vivo, human
- condition.info: human, plasma, oral, 200 mg, Cmax plasma - Sunitinib concentration, 200 mg O1W; individual patient
property.label: Cmax (ng/mL)

| smiles.code | result.number |
| --- | --- |
| CCN(CC)CCNC(=O)c1c(C)[nH]c(/C=C2\C(=O)Nc3ccc(F)cc32)c1C | 239 |

====

- assay.explanation: Skin drug concentration in skin biopsy at day 17 (LC-MS-MS)
- Format: in vivo, human
- condition.info: human, skin, oral, 800 mg, Skin - Sunitinib concentration, 800 mg O2W, individual patient

| smiles.code | concentration at 17 day, ng/mL |
| --- | --- |
| CCN(CC)CCNC(=O)c1c(C)[nH]c(/C=C2\C(=O)Nc3ccc(F)cc32)c1C | 520 |

====

- assay.explanation: Plasma pharmacokinetics of high-dose intermittent sunitinib (LC-MS-MS, NONMEM)
- Type: in vivo, human
- condition.info: human, plasma, oral, 600 mg, Cmax plasma - Sunitinib concentration, 600 mg O2W; individual patient
property.label: Cmax (ng/mL)

| molecule | property.label | result.number |
| --- | --- | --- |
| CCN(CC)CCNC(=O)c1c(C)[nH]c(/C=C2\C(=O)Nc3ccc(F)cc32)c1C [sunitinib] | Cmax | 190 |
